test system: DU-145 prostate; assay: NCI tumour cell line growth inhibition, 48 h
Outcome Measure: TGI (µM)
Numbers only here, please. The scale is µM.

Report TGI from DU-145 prostate testing of CCCCCCCCCCSC(=N)N
19.3

Determine reported TGI for CC1C2(C)OCC(C#N)(C(=N)O2)C1(C#N)C#N (stereo not drawn) ; test system: DU-145 prostate.
74.3

Would you please give the reported TGI of Nc1c(C(=O)Nc2cccc3ccccc23)sc2nc3c(cc12)C(=O)CCC3 with DU-145 prostate?
8.71

Please report the measured TGI for Nc1nc(N)c2c(n1)NC(c1sc(Cl)nc1Cl)CC(c1ccc3c(c1)OCO3)=N2 (stereo not drawn) tested on DU-145 prostate.
34.4

Identify measured TGI obtained with DU-145 prostate for CN=C(N)N/N=C(\C)c1ccc2c(c1)Cc1ccccc1-2 .
3.17

----------
tested on: SF-295 CNS; test: NCI tumour cell line growth inhibition, 48 h
Outcome Measure: TGI

Give recorded TGI. CCCCCCCCCCCCCCCCOCC(O)CO (stereo not drawn)
30.3 µM

Could you please provide reported TGI for NC(=O)Oc1ccccc1 ? Thanks!
> 100 µM

Look up and state reported TGI for O=C1c2cc([N+](=O)[O-])sc2C(=O)c2c([N+](=O)[O-])csc21
2.32 µM

Annotate the molecule CCCCC[C@H]1CCCCCCCCCC(=O)OC2C(O[C@@H]3OC(C)[C@H](OC(=O)[C@@H](C)CC)C(O[C@@H]4OC(C)[C@H](O)C(O)[C@@H]4O)[C@@H]3OC(=O)[C@H](C)CC)[C@H](OC3C(O)[C@@H](O)C(C)O[C@H]3O1)OC(CO)[C@H]2O (stereo partly drawn) with its measured TGI.
32.7 µM

Look up TGI of CN(C(=O)CNC(=O)/C=C/c1cccc(Cl)c1)C1CCS(=O)(=O)CC1 and report it.
> 100 µM

Identify TGI associated with the molecule CC(=O)[C-](C(C)=O)c1ccccc1.CC(=O)[C-](C(C)=O)c1ccccc1.CC(=O)[C-](C(C)=O)c1ccccc1.[Cl-].[Zr+4]
> 100 µM

# return recorded TGI for input COc1ccc(-n2cnc3c(NC(Cc4ccccc4)C(=O)O)ncnc32)cc1 (stereo not drawn)
> 100 µM

Please indicate TGI recorded for Cc1ccc(S(=O)(=O)Nn2c(O)c(C#N)c(-c3ccc([N+](=O)[O-])cc3)c(C#N)c2=O)cc1
> 100 µM

----------
Kindly supply the reported TGI values for the records listed here.
system: HOP-62 NSCLC; assay: NCI tumour cell line growth inhibition, 48 h

Provide measured TGI value, entry: CCN(CC)Cc1cc(Nc2c3ccccc3nc3cc(Cl)ccc23)ccc1O
3.16 µM

Give recorded TGI. O=C1CCC(=O)c2sccc2N1
> 100 µM

Using known records, supply TGI for CCCCCCCCCCCCOP(=O)(O)OP(=O)(O)OCC1OC(n2cc(C)c(=O)[nH]c2=O)CC1O (stereo not drawn)
> 100 µM

Write down TGI measured for item FC(F)(F)c1ccc2nc(Sc3ccc4ccccc4c3)cnc2c1
> 100 µM

Report TGI for O=C(O)c1ccc(N/C(=C(/C(Cl)=C(Cl)Cl)[N+](=O)[O-])n2nnc3ccccc32)cc1
> 100 µM

Give the reported TGI for this compound. CC1OC(=O)C(C(C)C)NC(=O)C(C(C)C)OC(=O)C(C(C)C)NC(=O)C(C)OC(=O)C(C(C)C)NC(=O)C(C(C)C)OC(=O)C(C(C)C)NC(=O)C(C)OC(=O)C(C(C)C)NC(=O)C(C(C)C)OC(=O)C(C(C)C)NC1=O (stereo not drawn)
0.0144 µM

Name the recorded TGI of the item CC(NC(=O)C(Cc1ccc(OC(=O)c2ccccc2)cc1)NC(=O)OC(C)(C)C)C(=O)NCC(=O)NC(Cc1ccccc1)C(=O)NN (stereo not drawn) in your answer.
> 100 µM

Indicate its recorded TGI; the compound in question is S=c1nc[nH]c2c1ncn2C1CCCO1 (stereo not drawn)
> 100 µM

Return the recorded TGI value; entry: CNC(c1ccncc1)C(NC)c1ccncc1 (stereo not drawn)
> 100 µM

Dear colleague, please send me the reported TGI for C=CCNC(=S)/N=C/C(C(=O)Nc1ccccc1C)=C(\C)O when you can.
> 100 µM

For the compound COCCN1C(=O)C2c3[nH]c4ccccc4c3C3CCC(C(C)(C)C)CC3C2C1=O (stereo not drawn) , give its measured TGI value.
37.4 µM

Specify TGI for Nc1nc(N)c2c(n1)NC(c1sc(Cl)nc1Cl)CC(c1ccc3c(c1)OCO3)=N2 (stereo not drawn) and stop.
22.3 µM

Supply reported TGI belonging to this compound: O=C(Nc1ccc2ccccc2c1)c1cc2cc(CCl)ccc2oc1=O
> 100 µM
